Biological target: T1, mouse PMEL17 (mouse, UniProt Q60696 24-626)
T1 construct: whole, on cells; also called B16-F10 (mouse)
T1 sequence (looked up): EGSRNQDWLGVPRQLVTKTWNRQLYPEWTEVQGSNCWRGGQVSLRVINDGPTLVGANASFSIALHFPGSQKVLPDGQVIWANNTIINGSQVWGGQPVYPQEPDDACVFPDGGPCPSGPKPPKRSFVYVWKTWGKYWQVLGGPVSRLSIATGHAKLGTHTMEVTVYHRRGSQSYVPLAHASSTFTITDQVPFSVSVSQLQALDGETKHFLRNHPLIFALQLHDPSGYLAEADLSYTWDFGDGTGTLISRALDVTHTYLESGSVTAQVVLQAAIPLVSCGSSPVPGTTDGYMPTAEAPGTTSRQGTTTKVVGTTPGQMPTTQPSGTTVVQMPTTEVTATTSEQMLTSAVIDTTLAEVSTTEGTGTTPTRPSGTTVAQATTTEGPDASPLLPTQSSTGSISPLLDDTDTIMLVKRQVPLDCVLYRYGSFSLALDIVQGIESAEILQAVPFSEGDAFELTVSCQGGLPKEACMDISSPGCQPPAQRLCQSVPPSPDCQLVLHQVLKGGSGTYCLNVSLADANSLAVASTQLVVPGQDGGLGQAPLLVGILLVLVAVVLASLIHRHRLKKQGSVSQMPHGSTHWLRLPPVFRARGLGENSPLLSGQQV
Assay: FACS titration of IgG on B16-F10 cells (mouse melanoma), Alexa Fluor detection antibody
readout.label: pEC50
Numbers only, as −log10 of the molar value.

{"binder": "Y010910 (antibody, V domains shown, Tested as purified human IgG) VH: EVQLVESGGGLVKPGGSLRLSCAASGFTFSNAWMSWVRQAPGKGLEWVGRIKSKTDAGTTDYAAPVKGRFTISRDDSKNTLYLQMNSLKTEDTAVYYCARVASPSAPGGFDYWGQGTLVTVSS VL: DIQMTQSPSSLSASVGDRVTITCRASQGISNYLAWYQQKPGKVPKLLIYAASTLQSGVPSRFSGSGSGTDFTLTISSLQPEDVATYYCQQSLFAPFTFGQGTKVEIK", "readout.label": "pEC50", "endpoint.result": 7.39}
{"binder": "Y010356 (antibody, V domains shown, Tested as purified human IgG) VH: EVQLVESGGGLVKPGGSLRLSCAASGFTFSNYWISWVRQAPGKGLEWVGRIKSKTYGGTTDYAEPVKGRFTISRDDSKNTLYLQMNSLKTEDTAVYYCARVSGYYSHSGGFDVWGQGTLVTVSS VL: DIQMTQSPSSLSASVGDRVTITCRASQGISNYLAWYQQKPGKVPKLLIYAASTLQSGVPSRFSGSGSGTDFTLTISSLQPEDVATYYCQKTWRTPGTFGQGTKVEIK", "readout.label": "pEC50", "endpoint.result": 8.85}
{"binder": "Y010906 (antibody, V domains shown, Tested as purified human IgG) VH: EVQLVESGGGLVKPGGSLRLSCAASGFTFSNAWMSWVRQAPGKGLEWVGRIKSKTDAGTTDYAAPVKGRFTISRDDSKNTLYLQMNSLKTEDTAVYYCARDEYPWGWFDVWGQGTLVTVSS VL: DIQMTQSPSSVSASVGDRVTITCRASQGISSWLAWYQQKPGKAPKLLIYAASSLQSGVPSRFSGSGSGTDFTLTISSLQPEDFATYYCQQYIFYPLTFGQGTKVEIK", "readout.label": "pEC50", "endpoint.result": 6.85}
{"binder": "Y010903 (antibody, V domains shown, Tested as purified human IgG) VH: EVQLVESGGGLVKPGGSLRLSCAASGFTFSNAWMSWVRQAPGKGLEWVGRIKSKTDAGTTDYAAPVKGRFTISRDDSKNTLYLQMNSLKTEDTAVYYCARASHRLHSLFDVWGQGTLVTVSS VL: DIQMTQSPSTLSASVGDRVTITCRASQSISSWLAWYQQKPGKAPKLLIYDASSLESGVPSRFSGSGSGTEFTLTISSLQPEDFATYYCQQGLFYPHTFGQGTKVEIK", "readout.label": "pEC50", "endpoint.result": 6.03}

Now look at this entry.
**Query** Sample Y010355 (antibody, V domains shown, Tested as purified human IgG) VH: EVQLVESGGGLVKPGGSLRLSCAASGFTFSNYWISWVRQAPGKGLEWVGRIKSKTYGGTTDYAEPVKGRFTISRDDSKNTLYLQMNSLKTEDTAVYYCARTSRRSYAFDYWGQGTLVTVSS VL: DIQMTQSPSTLSASVGDRVTITCRASQSISSWLAWYQQKPGKAPKLLIYDASSLESGVPSRFSGSGSGTEFTLTISSLQPEDFATYYCQQITRYPVTFGQGTKVEIK — what was its pEC50?
**Result** 9.10
